tested on: N[C@@H](Cc1ccc(O)c(O)c1)C(=O)O; experiment: fluorometric H2O2 production assay (peroxidase-coupled); assay type: biochemical, Bombyx mori; details: O2 co-substrate; PBS; PLP cofactor; aldehyde synthase (H2O2-producing) activity; parentheses are 95% confidence interval
In this section, each of the substances is paired with its reported kcat.
quantity-kind: kcat

{"substance": "B. mori DHPAAS (Bombyx mori)", "system": "N[C@@H](Cc1ccc(O)c(O)c1)C(=O)O", "result": "6.51 (6.27–6.76) min^−1"}
{"substance": "B. mori DHPAAS (Bombyx mori; N192H)", "system": "N[C@@H](Cc1ccc(O)c(O)c1)C(=O)O", "result": "1.40 (1.35–1.44) min^−1"}
{"substance": "B. mori DHPAAS (Bombyx mori; F79Y/Y80F)", "system": "N[C@@H](Cc1ccc(O)c(O)c1)C(=O)O", "result": "4.65 (4.30–5.03) min^−1"}
{"substance": "B. mori DHPAAS (Bombyx mori; F79Y/N192H/Y80F)", "system": "N[C@@H](Cc1ccc(O)c(O)c1)C(=O)O", "result": "0.97 (0.87–1.09) min^−1"}
